PROTOCOL_NOTES: NCI Yeast Anticancer Drug Screen. Data for the rad50 strain (AID 155);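 note: 0% = growth of vehicle-only cultures of the same strain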
ASSAY_CONDITIONS: S. cerevisiae rad50 strain growth inhibition; at 5.0 µM (retest, dose inferred, filed as 0.5)
The panel holds about 79,000 compounds, 15% with a hit somewhere; the sample as a whole holds those more often. Activity calls are given as the source filed them. Cut-off read from the data, not from the text of the source: active = growth inhibition above about 70%; inactive = the rest.
# output must be one of active, inactive

Exercise: Write down the call the test reported for this compound. Item: "S=c1[nH]c2ccccc2s1.[Pb]"
Key: inactive

Exercise: Which outcome did this test record for the compound "CC(=O)[O][Pb]([O]C(C)=O)([O]C(C)=O)[c]1ccccc1" ?
Key: active

Exercise: Which outcome was entered for the compound CC12CCCCC1C(=O)C2(Cl)Cl (stereo not given) in this test?
Key: inactive

Exercise: Lab log entry: "COc1ccc([As](O[As](c2ccc(OC)cc2)c2ccc(OC)cc2)c2ccc(OC)cc2)cc1" — outcome as called in the assay?
Key: active

# next compound below
Exercise: Per the records of this test, what outcome belongs to CC(=O)OCC12CCC(C)=CC1OC1C(O)C(OC(C)=O)C2(C)C12CO2 (stereo not given) ?
Key: active

====

Each record here notes measured growth inhibition.
PROTOCOL_NOTES: NCI Yeast Anticancer Drug Screen. Data for the cln2 rad14 strain (AID 165);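 note: 0% = growth equal to vehicle treated cultures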
ASSAY_CONDITIONS: S. cerevisiae cln2 rad14 strain, at 50.0 µM (retest, dose inferred, filed as 5.0), active compounds read high
Compounds without any hit were thinned out: in the full panel of roughly 79,000, 15% have a hit.
Answer in %, number only, no unit symbol.

Consider the worked cases shown below.
Exercise: For the molecule shown here, "CC/C(=C\c1ccccc1)[N+](=O)[O-]" , give the reported growth inhibition.
Key: 99

Exercise: I would be grateful if you could share the reported growth inhibition for C[As](C)SCCC(N)C(=O)NC(CCS[As](C)C)C(=O)O (stereo not given) .
Key: 98

Exercise: I would be grateful if you could share the reported growth inhibition for "C1CCNCC1.O=C([CH-]C(=O)C(F)(F)F)c1ccc2c(c1)C(=O)c1ccccc1-2.O=C([CH-]C(=O)C(F)(F)F)c1ccc2c(c1)C(=O)c1ccccc1-2.O=C([CH-]C(=O)C(F)(F)F)c1ccc2c(c1)C(=O)c1ccccc1-2.O=C([CH-]C(=O)C(F)(F)F)c1ccc2c(c1)C(=O)c1ccccc1-2.[Eu+3]" .
Key: 77

Exercise: May I ask what growth inhibition has been recorded for O=C1CN2CCCCC2CN1 (stereo not given) ?
Key: -60

Exercise: If you can, please state the reported growth inhibition value of "CCNC(=O)OOC(C)(C)C" .
Key: 77

***
Exercise: Recorded growth inhibition for "C1=C(/C=C2\CCCc3c(-c4ccccc4)cc(-c4ccccc4)[o+]c32)CCC/C1=C\C1=C2OC(c3ccccc3)=CC(c3ccccc3)=C2CCC1" , please?
Key: 25

Exercise: Which growth inhibition reading was recorded for the molecule "CN(C)c1ccc(N=Nc2cccc(C(=O)[O-])c2)cc1.CN(C)c1ccc(N=Nc2cccc(C(=O)[O-])c2)cc1.NC1CCCCC1N.O=[N+]([O-])O.[Pt+4]" ?
Key: 97

Exercise: Please give the measured growth inhibition for this molecule: "CN(C)C(=S)Nc1nnc(NC23CC4CC(CC(C4)C2)C3)s1"
Key: 94

====

PROTOCOL_NOTES: NCI Yeast Anticancer Drug Screen. Data for the sgs1 mgt1 strain (AID 161);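 note: 0% = growth of cultures given vehicle only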
ASSAY_CONDITIONS: S. cerevisiae sgs1 mgt1 strain, at 5.0 µM (retest, dose inferred, filed as 0.5)
This is part of a sample that, as a whole, favours compounds with a hit. Of some 79,000 tested, about 15% had one in any assay. Calls of active or inactive are those of the source. No stated cut-off is given here; in the data, active means growth inhibition above about 70%; inactive means the rest.
Give your call using only these classes: active, inactive

Exercise: Any idea what this test logged for "Cc1ccc(N=P(c2ccccc2)(c2ccccc2)c2ccccc2)cc1.[Br][Hg][Br]" ?
Key: active

====

PROTOCOL_NOTES: NCI Yeast Anticancer Drug Screen. Data for the rad50 strain (AID 155);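 note: 0% = growth of vehicle-only cultures of the same strain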
ASSAY_CONDITIONS: S. cerevisiae rad50 strain growth inhibition; at 50.0 µM
Experimental: Growth inhibition of yeast strains with defined genetic alterations is measured as a screen for potential anti-cancer activity. Selected strains with alterations in DNA damage repair or cell cycle control were exposed to compounds and growth inhibition was measured relative to vehicle treated controls. The strain used in this assay is rad50
This is part of a sample that, as a whole, favours compounds with a hit. Of some 79,000 tested, about 15% had one in any assay. Active and inactive are the calls of the source. Rule as the data show it: active = growth inhibition above about 70%; inactive = the rest.
// one of active, inactive, no free text

Exercise: Record lookup: outcome of this test for "C/C=C(\CC)C1(C(C)C)C(=O)NC(=O)NC1=O" ?
Key: inactive

Exercise: Please indicate how the test categorized COC12C(COC(N)=O)C3=C(C(=O)C(C)=C(N)C3=O)N1CC1C2N1C (stereo not drawn) .
Key: inactive

Exercise: Hi, sorry to bother you, what did the test record for "CCOP(=S)(OCC)OP(=O)(CC)CC" ?
Key: inactive

====

PROTOCOL_NOTES: NCI Yeast Anticancer Drug Screen. Data for the bub3 strain (AID 167)
ASSAY_CONDITIONS: S. cerevisiae bub3 mutant strain, at 50.0 µM, active compounds read high
Description: Growth inhibition of yeast strains with defined genetic alterations is measured as a screen for potential anti-cancer activity. Selected strains with alterations in DNA damage repair or cell cycle control were exposed to compounds and growth inhibition was measured relative to vehicle treated controls. The strain used in this assay is bub3
The panel holds about 79,000 compounds, 15% with a hit somewhere; the sample as a whole holds those more often.
Listed next: entries and their corresponding growth inhibition.
Write it as a number; the unit % goes unstated.

Here is how some compounds turned out for growth inhibition.
Exercise: Recorded growth inhibition for CCOP(=O)(OCC)C1CC(C(C)C)CC=C1C (stereo not given) , please?
Key: 3.75

Exercise: For the compound shown here, "c1ccc(N=c2snc(-c3ccccc3)s2)cc1" , give the reported growth inhibition.
Key: 82.5

Exercise: For the compound O=C1CC23c4ccccc4N4C(=O)CC5OCC=C6CN1C2CC6C5C43 (stereo not given) , what growth inhibition is on record?
Key: 12.8

Exercise: Which growth inhibition value is on record for C1=C/CCC2NC2C/C=C/CCC/1 (stereo not given) ?
Key: -22.8

Next:
Exercise: I am curious: what growth inhibition value has been reported for COc1cc(C2c3[nH]c4ccccc4c3[C@@H](Nc3ccc(C#N)cc3)[C@H]3COC(=O)N23)cc(OC)c1O (stereo not given in full) ?
Key: 65.9

====

Recorded growth inhibition for the following compounds
PROTOCOL_NOTES: NCI Yeast Anticancer Drug Screen. Data for the mec2-1 strain (AID 157)
ASSAY_CONDITIONS: S. cerevisiae mec2-1 strain, at 50.0 µM, active compounds read high
Experimental: Growth inhibition of yeast strains with defined genetic alterations is measured as a screen for potential anti-cancer activity. Selected strains with alterations in DNA damage repair or cell cycle control were exposed to compounds and growth inhibition was measured relative to vehicle treated controls. The strain used in this assay is mec2-1
This is part of a sample that, as a whole, favours compounds with a hit. Of some 79,000 tested, about 15% had one in any assay.
Give the value, in units of %, as a plain number.

Would you please look over these solved cases?
Exercise: GET /values?readout=growth inhibition&item= "NC(=O)/C=C/C(=O)O"
Key: 9.75

Exercise: Record request: growth inhibition value, item "CCCCCCCCCCBr"
Key: 17.2

Exercise: What does the data say about its growth inhibition? Entry: COc1ccc2c(c1)CCC(N1CCCC(=O)C1)C2 (stereo not given)
Key: 24.4

Exercise: Dear colleague, I am looking for the recorded growth inhibition of the following compound: "CCOC(=O)c1ccc(NP(=O)(Oc2ccccc2)Oc2ccccc2)cc1"
Key: 52.9

Exercise: growth inhibition for Cc1nc([N+](=O)[O-])c([N+](=O)[O-])n1CC(O)CCl (stereo not given) ?
Key: -12.4

Exercise: Param item = O=[N+]([O-])C(CO)C(CO)[N+](=O)[O-] (stereo not given) ; retrieve measured growth inhibition.
Key: -12.4

Exercise: Any idea what its growth inhibition is? The compound is "CCCCCCCCCCCCBr"
Key: -7.4

Exercise: Entry "Cc1cc(N(CCCl)CCCl)ccc1C1N(Cc2ccc(N(C)C)cc2)CCN1Cc1ccc(N(C)C)cc1" has what growth inhibition?
Key: 1.55

Exercise: Which measured growth inhibition value corresponds to "CC(C)CCC[C@@H](C)[C@H]1CC[C@H]2[C@@H]3CC=C4C[C@@H](OC(=O)Cl)CC[C@]4(C)[C@H]3CC[C@]12C" ?
Key: -24.9

Exercise: Sample "Cc1cccc(N)c1N" — what was its growth inhibition?
Key: -15.1

Further cases:
Exercise: // query growth inhibition value for entry "ICCCI"
Key: -29.8

Exercise: Which growth inhibition is listed for "CCCCCCCCCCC[CH2][Hg][CH2]CCCCCCCCCCC" ?
Key: -1.05

Exercise: growth inhibition for NC(CSC(c1ccccc1)c1ccccc1)C(=O)O (stereo not given) ?
Key: 0

Exercise: I am curious: what growth inhibition value has been reported for Cc1coc2c1CCC(C)C2 (stereo not given) ?
Key: -24.8

Exercise: Which growth inhibition reading was recorded for the compound CC(=O)O.CC(=O)O.[Co+2].[NH-]C(CCC(N)=O)C(=O)O.[NH-]C(CCC(N)=O)C(=O)O (stereo not given) ?
Key: 13.4
